Target: human Norepinephrine Transporter (NET), SLC6A2 (gene 6530)
Test: NVS_TR_hNET: NovaScreen (NVS) Transporter Assay for human Norepinephrine Transporter (NET) (AID 2283377);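 note: cell-free membrane protein extracted from CHO cells expressing human NET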
Method: NVS_TR_hNET is a biochemical, single-readout assay that uses extracted gene-proteins from CHO in a cell-free assay. Measurements were taken 1 hour after chemical dosing in a 96-well plate.NVS_TR_hNET is one of one assay component(s) measured or calculated from the NVS_TR_hNET assay. […] This assay endpoint, NVS_TR_hNET, was analyzed in the positive analysis fitting direction relative to DMSO as the negative control and baseline of activity. […]
Inconclusive results are not listed. Active and inactive are the calls of the source. Rule for the calls: active = hit-call score of the fitted dose curve at least 0.9, where 1 is the maximum; inconclusive = response in the unintended direction; inactive = score below 0.9.
Write down the outcome that applies. Available outcomes: true = active, false = inactive

# example entries with known answers
N#CCCC(Br)(C#N)CBr (stereo not given)	false
Oc1cccc(-c2ccccc2)c1	false

q: Recorded test call requested for O=C(O)C1(c2ccc3c(c2)OC[C@H](Cc2ccc(-c4ccccc4)cc2)[C@H]3O)CCCC1
a: true

q: Per the assay record, what outcome was assigned to BrCC(Br)c1ccccc1 (stereo not given) ?
a: false

q: Each compound tested received a call. Report the one for CCCCCCCCCCCCc1cccc(S(=O)(=O)O)c1 .
a: true

q: Hi, do you know how Cc1cc(C(C)(C)c2ccc(O)c(C)c2)ccc1O came out in this test?
a: true
